test system: PC-3; experiment: NCI tumour cell line growth inhibition, 48 h
Active and inactive are the calls of the source. Rule as the data show it: active = GI50 up to about 1.1 µM and inactive = higher. Square brackets hold non-standard residues; d marks the D form. Peptide text beside a SMILES is read from it. * marks the point of attachment. AllylGly = C=CC[CH](N)C(=O)O; Boc = CC(C)(C)OC(=O)*; OtBu = CC(C)(C)O*
Provide the recorded GI50 for the entries that follow.

Input line: Requested read-out GI50, target or system PC-3, entry CC(=O)Nc1ccccc1SCCSSCCSc1ccccc1NC(C)=O
Output line: 23.1 µM (inactive)

Input line: Another molecule to check: CC(=O)N(C)CCc1c[nH]c2ccccc12
Output line: > 100 µM (inactive)

Input line: Another molecule to check: N=C1C(O)C2(I)c3ccccc3N3C(=N)C(O)C4c5ccccc5N1C4C32 (centres undefined)
Output line: 41.7 µM (inactive)

Input line: Another molecule to check: COC(=O)c1c(C)cccc1C1CN=NC12Cc1cc(C)cc(C)c1C2=O (centres undefined)
Output line: 30.1 µM (inactive)

Input line: Another molecule to check: C(/Cc1ccc2c(c1)OCO2)=N\N=C1NCCN1
Output line: 71.3 µM (inactive)

Input line: Another molecule to check: O=C(Cn1c2c(c3ccccc31)CCCC2)NC1CCCCC1
Output line: 88.7 µM (inactive)

Input line: Another molecule to check: Nc1nc(SCC(=O)c2ccccc2)nc2nc3c(c(-c4ccccc4)c12)CCCC3
Output line: > 10 µM (inactive)

Input line: Another molecule to check: CC(C)(C)OC(=O)NCCCNC1(c2cc3ccccc3s2)CCCCC1
Output line: 18.8 µM (inactive)

Input line: Another molecule to check: CCN1CSC(=S)N(CC)C1
Output line: > 100 µM (inactive)

Input line: Another molecule to check: COCC(/N=C\N1CCCc2ccccc2[C@@H]1CCCCl)C(C)(C)C (some centres undefined)
Output line: 0.482 µM (active)

Input line: Another molecule to check: CCOC(=O)c1c(NC(=O)c2cccs2)sc2c1CCCC2
Output line: 54.8 µM (inactive)

Input line: Another molecule to check: SCc1ccc(CS)s1
Output line: > 100 µM (inactive)

Input line: Another molecule to check: O=C(c1ccc(Cl)c(Cl)c1)N(C(=O)N1CCN(c2ccccc2)CC1)S(=O)(=O)c1ccccc1
Output line: 32 µM (inactive)

Input line: Another molecule to check: CC1(C)OCC(C2OC(On3nnc4ccc(Cl)cc43)C3OC(C)(C)OC23)O1 (centres undefined)
Output line: > 100 µM (inactive)

Input line: Another molecule to check: O=C(O)CNC(=O)CO/N=C1/C(=C2/C(=O)Nc3ccccc32)Nc2ccccc21
Output line: 60.8 µM (inactive)

Input line: Another molecule to check: OC[C@@H](O)[C@H](O)[C@H](O)[C@@H](O)C1SCCCS1
Output line: > 100 µM (inactive)

Input line: Another molecule to check: C=C(CN(C)C)C(=O)c1ccc(Oc2ccccc2)cc1
Output line: 3.98 µM (inactive)

Input line: Another molecule to check: C=C(CN(C)C)C(=O)c1ccccc1
Output line: 16 µM (inactive)

Input line: Another molecule to check: CN1CCc2c(sc3ncn(C)c(=N)c23)C1
Output line: > 100 µM (inactive)

Input line: Another molecule to check: O=C1NC(=O)C(F)(n2cc(F)c(=O)[nH]c2=O)C(O)N1 (centres undefined)
Output line: > 10 µM (inactive)

Input line: Another molecule to check: Cc1nnc(Nc2ccccc2)o1
Output line: > 100 µM (inactive)

Input line: Another molecule to check: c1csc(-c2cscc2-c2ccsc2)c1
Output line: > 43.8 µM (inactive)

Input line: Another molecule to check: O=C1CCCC(=O)N1n1c(Cc2ccc(Cl)cc2)n[nH]c1=O
Output line: > 100 µM (inactive)

Input line: Another molecule to check: C=CCC(NC(=O)C(CC(=O)OC(C)(C)C)NC(=O)OC(C)(C)C)C(=O)OC (centres undefined) (Boc-Asp(OtBu)-[AllylGly]-OMe; configuration not given here)
Output line: > 100 µM (inactive)

====

tested on: M14; assay: NCI tumour cell line growth inhibition, 48 h
Activity calls are given as the source filed them. Rule as the data show it: active = GI50 up to about 1.1 µM and inactive = higher.
Output constraint: value belongs to active, inactive

Input line: Field: outcome | Entry: Cc1cc(-c2[nH]c(C(=O)O)cc2I)on1
Output line: inactive

Input line: Another molecule to check: O=C(/C=C1\N=C(c2ccccc2)N(c2ccc3c(c2)Sc2cc(N4C(=O)/C(=C/C(=O)/C=C/c5ccccc5)N=C4c4ccccc4)ccc2N3)C1=O)/C=C/c1ccccc1
Output line: inactive

Input line: Another molecule to check: CC(=O)Nc1ccccc1SCCSSCCSc1ccccc1NC(C)=O
Output line: inactive

Input line: Another molecule to check: COC(=O)C12OCC34C(CC5C(C)=CC(=O)C(O)C5(C)C3C(O)C1O)OC(=O)C(OC(=O)CC(C)C)C24 (stereo not given)
Output line: active

Input line: Another molecule to check: CC1C2CCC3C(O)C2(CC(O)C2(O)C1CC(O)C2(C)C)CC3(C)O (stereo not given)
Output line: inactive

Input line: Another molecule to check: CCOC(=O)c1c(NC(=O)c2cccs2)sc2c1CCCC2
Output line: inactive

Input line: Another molecule to check: CC1(C)CCC[C@@]2(C)C1CCC1(C)C(CCc3ccoc3)/C(=C/OS(=O)(=O)O)CCC12 (stereo not given in full)
Output line: inactive

Input line: Another molecule to check: O=C1C(=Cc2ccco2)C(=O)C2CCCCC12 (stereo not given)
Output line: inactive

Input line: Another molecule to check: C[N+](C)(C)CC(=O)N/N=C/c1oc(-c2cccc([N+](=O)[O-])c2)c(-c2cccc([N+](=O)[O-])c2)c1[N+](=O)[O-]
Output line: inactive

Input line: Another molecule to check: O=C(/N=c1/[nH]/c(=N/C(=O)c2ccccc2)ss1)c1ccccc1
Output line: inactive

Input line: Another molecule to check: N#CC(C#N)C(c1ccccc1)c1ccccc1
Output line: inactive

Input line: Another molecule to check: Cc1cnc2sn(-c3ccc(Br)cc3)c(=O)c2c1
Output line: inactive

Input line: Another molecule to check: CN(C)c1ccc(-c2nc(N)nc3c2CCCC3)cc1
Output line: inactive

Input line: Another molecule to check: C[S+](C)C1(c2ccccc2)C(=O)c2ccccc2C1=O
Output line: inactive

Input line: Another molecule to check: COc1c(-c2nc3ccc(N4CCN(C)CC4)cc3[nH]2)cc(OC)c2[nH]c(CO)nc12
Output line: inactive

Input line: Another molecule to check: Cc1cn(C2CC(O)C(CO)O2)c(=O)n2nnnc12 (stereo not given)
Output line: inactive

Input line: Another molecule to check: O=C1/C=C(/c2ccc(O)cc2)[C@@H](OC2OC(CO)C(O)C(O)C2O)Cc2ccc(O)cc2O1.O=C1/C=C(/c2ccc(O)cc2)[C@H](O)Cc2ccc(O[C@@H]3OC(CO)C(O)C(O)C3O)cc2O1 (stereo not given in full)
Output line: inactive

Input line: Another molecule to check: C[N+](C)(C)CC1CCCC(C[N+](C)(C)C)C1=O (stereo not given)
Output line: active

Input line: Another molecule to check: COc1c(C)c2c(c(C)c1Cl)Oc1c(C=O)c(O)c(Cl)c(C)c1C(=O)O2
Output line: inactive

Input line: Another molecule to check: C=C(CN(C)C)C(=O)c1ccc(Oc2ccccc2)cc1
Output line: inactive

Input line: Another molecule to check: O=C(OC1C(Oc2ccccc2COC(=O)C2(O)C=CCCC2=O)OC(CO)C(O)C1O)c1ccccc1 (stereo not given)
Output line: inactive

Input line: Another molecule to check: COc1cc(-c2cc(=O)c3c(O)c(CC=C(C)C)c(O)cc3o2)ccc1O
Output line: inactive

Input line: Another molecule to check: O=C(O)COc1ccc2c3c1C(=O)CCC3CO2 (stereo not given)
Output line: inactive

Input line: Another molecule to check: CCCN(CCC)C(=O)c1c(Cl)c2cccnc2n2c(C)cnc12
Output line: inactive

Input line: Another molecule to check: CCCCCCCCCC[C@@H](OC(C)=O)[C@@H]1CC[C@@H]([C@@H]2CC[C@@H]([C@@H](O)CC#C/C=C/CCCCCCC[C@@]3(Sc4ccccc4)C[C@H](C)OC3=O)O2)O1
Output line: inactive

Input line: Another molecule to check: CCCCN(CCCC)CC(C(C)=O)C(c1ccccc1)c1c(O)c2ccccc2oc1=O (stereo not given)
Output line: inactive

Input line: Another molecule to check: Cc1ccc(-c2cc(C(F)(F)F)nn2-c2ccc(S(N)(=O)=O)cc2)cc1 [CELECOXIB]
Output line: inactive

Input line: Another molecule to check: COC(=O)c1ccc(NCC2=CC(=O)C=CC2=O)cc1
Output line: inactive

Input line: Another molecule to check: Cc1cc([N+](=O)[O-])c(C)c2c1[nH]c1ccc(/C(CCC3CCCC3)=N\N)cc12
Output line: inactive

Input line: Another molecule to check: CN1CCc2c(sc3ncn(C)c(=N)c23)C1
Output line: inactive

Input line: Another molecule to check: CN(C)CCC(=O)N1CCc2c([nH]c3ccccc23)C1c1cccnc1 (stereo not given)
Output line: inactive

Input line: Another molecule to check: Cc1cc2c(c(=O)o1)C1=S(SC(c3ccccc3)=C1)S2 (stereo not given)
Output line: inactive

Input line: Another molecule to check: N#C/C(=C(\O)C(=O)O)c1ccc(-c2cccc3ccccc23)cc1
Output line: inactive

Input line: Another molecule to check: NC1=NS(=O)(=O)Nc2[nH]c(-c3ccccc3)nc21
Output line: inactive

Input line: Another molecule to check: CC(=O)N1CCc2c([nH]c3ccc(Br)cc23)C1c1ccccc1 (stereo not given)
Output line: inactive

Input line: Another molecule to check: CC(C)[C@@H](COC(C)(C)C)/N=C/N1CCc2c([nH]c3ccccc23)C1
Output line: inactive

Input line: Another molecule to check: C=CCOCn1ccc(N)nc1=O
Output line: inactive

Input line: Another molecule to check: O=C1C(Br)=C[C@H]2C3C=CC(Br)(C3=O)[C@@H]12 (stereo not given in full)
Output line: inactive

Input line: Another molecule to check: CCOc1cn(C2CC(O)C(CO)O2)c(=O)[nH]c1=O (stereo not given)
Output line: inactive

Input line: Another molecule to check: O=C(CC(CC(=O)Oc1c(Br)cc(Br)cc1C(=O)O)C(=O)Oc1c(Br)cc(Br)cc1C(=O)O)Oc1c(Br)cc(Br)cc1C(=O)O
Output line: inactive
